# protocol details: Inhibition of voltage-gated sodium channel of Wistar rat dissociated DRG neuron assessed as inhibition of current induced of voltage-gated sodium current at -100 mV holding potential with 5 sec intervals by patch-clamp recordings
measured endpoint: IC50 (µM)
Write it as a number; the unit µM goes unstated.

The reported IC50 of the compound `Cc1ccc(C(C)C)cc1O` was 370
